Origin of values: patent US20240325562A1

- Experimental Target: hPDGFRB (Homo sapiens, UniProt P09619)
- Sequence (P09619 33-532 limits assumed): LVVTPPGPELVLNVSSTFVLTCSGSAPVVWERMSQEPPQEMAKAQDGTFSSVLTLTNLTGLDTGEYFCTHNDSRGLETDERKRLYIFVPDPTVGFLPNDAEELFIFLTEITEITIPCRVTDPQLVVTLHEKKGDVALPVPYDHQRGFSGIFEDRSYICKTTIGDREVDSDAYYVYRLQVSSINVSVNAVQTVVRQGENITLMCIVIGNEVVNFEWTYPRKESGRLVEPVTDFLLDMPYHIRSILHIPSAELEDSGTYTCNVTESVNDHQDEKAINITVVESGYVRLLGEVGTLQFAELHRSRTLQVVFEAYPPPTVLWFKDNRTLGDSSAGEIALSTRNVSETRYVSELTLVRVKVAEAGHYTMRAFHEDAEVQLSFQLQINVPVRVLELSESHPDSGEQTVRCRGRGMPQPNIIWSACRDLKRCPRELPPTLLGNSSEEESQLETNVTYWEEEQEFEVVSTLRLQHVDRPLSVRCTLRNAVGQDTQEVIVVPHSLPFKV
- Assay Remarks: Competition assays of PDGFRB VHHs on hPDGFRB
- Assay type: binding
- Condition Notes: VHHs from libraries 1 and 2; four main groups
Assay Endpoint: epitope group (mutual competition)

• SP20P: VHH single domain antibody targeting PDGFRB, SEQ ID NO: 113 (protein) VHH: EVQLVESGGGLVQAGGSLRLSCVISGRTSPTYPMGWFRQSPGNEREFVASINWSGGWRNYADSVKDRFTISRDDAKNTVYLQMNSLKPEDTAVYYCARGQYSSGTPVYAHEYAYWGQGTQVTVSS = third
• SP07P: VHH single domain antibody targeting PDGFRB, SEQ ID NO: 33 (protein) VHH: EVQLVESGGGSVQTGGSLRLSCAASGRSFSTYAMAWFRQAPGKEREFVAAINRRATDTVYADSAKGRFIISRDNDKNTVYLQMDSLKTEDTAVYYCAAAKNAYDWRWDRLRDRDYWGQRGQGTQVTVSS = first
• SP13P: VHH single domain antibody targeting PDGFRB, SEQ ID NO: 73 (protein) VHH: EVQLVESGGGLVQPGGSLRLSCAASESIFSINYMAWYRQAPGKQRELVAFSIDGSSTNYVDSVRGRFTASRDNAENTLYLQMNSLKPEDTAVYYCYAQGNTWAAGVWGQGTQVTVSS = first
• SP02P: VHH single domain antibody targeting PDGFRB, SEQ ID NO: 9 (protein) VHH: EVQLVESGGGLVQAGGSLRLSCAASESISSIEQMGWFRQAPGKQRALVAINTYGGRTVYTNSVEGRFTMSRDSAKNMVYLQMTSLEPEDTAVYYCYAQTTAWRGGVWGQGTQVTVSS = first
• SP08P: VHH single domain antibody targeting PDGFRB, SEQ ID NO: 41 (protein) VHH: EVQLVESGGGLVQAGGSLRLSCAASGRTFNGYAMAWFRQAPGKERDFVASITWSYGYTYYADSAQGRFTISRDSAKNTVYLEMNSLKPEDTAVYYCAADPKASRFRILRQYAHWGQGTQVTVSS = second
• SP12P: VHH single domain antibody targeting PDGFRB, SEQ ID NO: 65 (protein) VHH: EVQLVESGGGLVQAGGSLRLSCVISGRTSPTYPMGWFRQSPGNEREFVASINWSGGWRNYADSVKGRFTISRDDAKNTVYLQMNSLKPEDTAVYYCARGQYSSGTPVYAHEYAYWGQGTQVTVSS = third
• SP01P: VHH single domain antibody targeting PDGFRB, SEQ ID NO: 1 (protein) VHH: EVQLVESGGGLAQAGGSLRLSCVASGNIDSANGMAWYRQAPGKQRELVAHITSGTSYYVASVEGRFTISRANAKDTWYLQMNSLKPEDTGVYYCFPIGLSAHWSQGTQVTVSS = first
• SP05P: VHH single domain antibody targeting PDGFRB, SEQ ID NO: 25 (protein) VHH: EVQLVESGGGLVQAGGSLRLSCAASGRTSFSGYAMAWFRQAPGKERDFVASITWSYGYTYYTDSAQGRFTISRDSAKNTVYLEMNSLKPEDTAVYYCAADPKASRFRILREYAYWGQGTQVTVSS = second
• SP10P: VHH single domain antibody targeting PDGFRB, SEQ ID NO: 49 (protein) VHH: EVQLVESGGGLVQAGGSLRLSCAASGRTFNGYAMGWFRQAPGKERDFVAAITWSYGYTHYAESVKGRFSISRDSANNMVYLEMNSLKPEDTAVYYCAADPKASRFRTLRRYDYWGQGTQVTVSS = second
